Recorded values, source patent US10562882B2.

biological target: human PKR1 receptors (Homo sapiens (Human), UniProt Q8TCW9); test: PKR1 antagonist intracellular calcium (FLIPR) assay, block of PK1-mediated calcium release; conditions: RBL2H3 cells expressing human PKR1; PK1 at EC80; minimum of two independent assays
Sequence (Q8TCW9 whole entry): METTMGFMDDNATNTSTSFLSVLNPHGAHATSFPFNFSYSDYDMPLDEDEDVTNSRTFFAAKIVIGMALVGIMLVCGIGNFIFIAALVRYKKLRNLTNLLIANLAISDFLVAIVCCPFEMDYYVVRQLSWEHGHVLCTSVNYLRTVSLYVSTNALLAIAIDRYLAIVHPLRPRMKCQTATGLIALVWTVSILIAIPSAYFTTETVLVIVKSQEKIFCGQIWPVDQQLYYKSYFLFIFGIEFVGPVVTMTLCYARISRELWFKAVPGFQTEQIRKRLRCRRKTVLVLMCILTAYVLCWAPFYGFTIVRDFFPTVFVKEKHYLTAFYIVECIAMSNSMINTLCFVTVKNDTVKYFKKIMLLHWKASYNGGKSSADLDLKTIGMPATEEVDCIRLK
Entries are sorted into classes by IC50 as follows: bottom bin: < 900 nM; middle bin: ≥ 900 nM and < 3000 nM; top bin: ≥ 3000 nM

Which of the defined bands does the recorded IC50 of CNc1cc(C(=O)N2CCCC(OC)(c3ncc(Cl)cc3C)C2)ccn1 (stereo not drawn) [Example 34] sit within?
bottom bin

Category of CC(C)n1c(C2CCCN(C(=O)c3ccnc(N(C)C)c3)C2)nc2ccccc21 (racemic) [Example 1] , please.
bottom bin

Into which bin does this compound go? CCn1c(C2CCCN(C(=O)c3cnnc(NC)c3)C2)cc2cc(Cl)ccc21 (stereo not drawn) [Example 20]
middle bin

Could you place CCn1cc(C(=O)N2CCCC(OC)(c3ncc(Cl)cc3C)C2)cn1 (stereo not drawn) [Example 40] in its proper category? Many thanks.
top bin

Could you place CCn1c(C2CCCN(C(=O)c3cn(C)nc3N)C2)cc2cc(C)ccc21 (stereo not drawn) [Example 26] in its proper category? Many thanks.
top bin

Bin? Cc1cc(Cl)cnc1C1CCCN(C(=O)c2cnnc(N(C)C)c2)C1 (stereo not drawn) [Example 28]
middle bin

Which category fits this record: CCn1cc(C(=O)N2CCCC(c3cc4cc(C)ccc4n3CC)C2)cn1 (stereo not drawn) [Example 17]
middle bin

Which bin should I file CCn1c(C2CCCN(C(=O)c3cn(C)nc3N)C2)c(C)c2ccccc21 (stereo not drawn) [Example 25] under?
top bin

Class label required: CC(C)n1c(C2CCCN(C(=O)c3cn(C)nc3N)C2)cc2ccccc21 (stereo not drawn) [Example 16]
middle bin

Form field 'band' for CCn1cc(C(=O)N2CCCC(c3cc4ccccc4n3C(C)C)C2)cn1 (stereo not drawn) [Example 15]
bottom bin

Input CN(C)c1cc(C(=O)N2CCCC(c3nc4ccccc4n3C)C2)ccn1 (stereo not drawn) [Example 4] ; output its category
middle bin

Band assignment needed for CCn1c(C2CCCN(C(=O)c3ccnc(N(C)C)c3)C2)cc2ccccc21 (stereo not drawn) [Example 10] please.
bottom bin

Would you mind sorting CCn1c(C2CCCN(C(=O)c3cnnc(N(C)C)c3)C2)cc2cc(C)ccc21 (stereo not drawn) [Example 21] into the appropriate category?
top bin

Place this compound in its band: COC1(c2ncc(Cl)cc2C)CCCN(C(=O)c2cn(C)nc2N)C1 (stereo not drawn) [Example 42]
top bin

Which class is correct for the following compound? CNc1cc(C(=O)N2CCCC(c3[nH]c4ccccc4c3C)C2)cnn1 (stereo not drawn) [Example 23]
top bin

Assign a category based on measured IC50 for CC(C)n1c(C2CCCN(C(=O)c3cnnc(N(C)C)c3)C2)cc2ccccc21 (stereo not drawn) [Example 13] and give only the class name.
bottom bin

Would you mind sorting CN(C)c1cc(C(=O)N2CCCC(c3cc4ccccc4n3C)C2)ccn1 (stereo not drawn) [Example 8] into the appropriate category?
middle bin

Determine which band this compound sits in: CCn1c(C2CCCN(C(=O)c3cnnc(N(C)C)c3)C2)cc2ccccc21 (stereo not drawn) [Example 11]
middle bin

====

target: human PKR1 receptors (Homo sapiens (Human)); experiment: PKR1 antagonist intracellular calcium (FLIPR) assay, block of PK1-mediated calcium release; settings: RBL2H3 cells expressing human PKR1; PK1 at EC80; minimum of two independent assays
pIC50: −log10 of the molar value. Counter-ions that a name gives are not always drawn.
Each entry gets No if its pIC50 stays under 6, and Yes if its pIC50 is 6 or above.

Could you tell me if the measured pIC50 of CNc1cc(C(=O)N2CCCC(OC)(c3ncc(Cl)cc3C(F)(F)F)C2)cnn1 (stereo not shown) reaches 6 or more?
No

Does CNc1cc(C(=O)N2CCCC(F)(c3ncc(Cl)cc3C)C2)ccn1 (stereo not shown) have a reported pIC50 of at least 6?
Yes

Quick check, pIC50 >= 6? CCn1c(C2CCCN(C(=O)c3cnnc(NC)c3)C2)c(C)c2ccccc21 (stereo not shown)
No

Check the entry COC1(c2ncc(Cl)cc2C(F)(F)F)CCCN(C(=O)c2cnnc(N(C)C)c2)C1 (stereo not shown) : does pIC50 equal or exceed 6?
No

Record Cc1cc(Cl)cnc1C1(F)CCCN(C(=O)c2cn(C)nc2N)C1 (stereo not shown) ; criterion: pIC50 no lower than 6. Met?
No

Check if pIC50 >= 6 (inclusive). Item: COC1(c2ncc(Cl)cc2C(F)(F)F)CCCN(C(=O)c2ccnc(N(C)C)c2)C1 (stereo not shown)
Yes

Entry CC(C)n1c(C2CCCN(C(=O)c3ccnc(N(C)C)c3)C2)nc2ccccc21 (single isomer, unassigned; enantiomer 1) [Example 2] : is its pIC50 no less than 6?
Yes

For this compound, is measured pIC50 6 or higher? CC(C)n1c(C2CCCN(C(=O)c3cnnc(Cl)c3)C2)nc2ccccc21 (stereo not shown)
No

Determine whether this compound has pIC50 no lower than 6: CNc1cc(C(=O)N2CCCC(c3nc4ccccc4n3C(C)C)C2)cnn1 (stereo not shown)
No

I'd appreciate it if you could say whether CC(C)n1c(C2CCCN(C(=O)c3ccnc(N(C)C)c3)C2)nc2ccccc21 (single isomer, unassigned; enantiomer 2) [Example 3] has pIC50 at least equal to 6.
No

Identify whether the reported pIC50 of the following compound is 6 or greater: CCn1c(C2CCCN(C(=O)c3cnnc(N(C)C)c3)C2)cc2cc(Cl)ccc21 (stereo not shown)
No

Is it the case that CCn1cc(C(=O)N2CCCC(F)(c3ncc(Cl)cc3C)C2)cn1 (stereo not shown) has pIC50 reaching or exceeding 6?
No

Please check the record CCn1c(C2CCCN(C(=O)c3cnnc(NC)c3)C2)cc2cc(C)ccc21 (stereo not shown) and state if its pIC50 is at or above 6.
No

Hi, just wondering whether CNc1cc(C(=O)N2CCCC(c3cc4ccccc4n3C(C)C)C2)cnn1 (stereo not shown) shows pIC50 of 6 or higher.
Yes

API: above_or_equal(metric=pIC50, cutoff=6) for item CCn1cc(C(=O)N2CCCC(OC)(c3ncc(Cl)cc3C(F)(F)F)C2)cn1 (stereo not shown)
No

Exam item: decide whether the reported pIC50 for CCn1cc(C(=O)N2CCCC(c3nc4ccccc4n3C(C)C)C2)cn1 (stereo not shown) is at least 6.
No

Please indicate if the recorded pIC50 for Cc1c(C2CCCN(C(=O)c3cnnc(N(C)C)c3)C2)[nH]c2ccccc12 (stereo not shown) meets or exceeds 6.
No

Textbook exercise: given the entry CNc1cc(C(=O)N2CCCC(OC)(c3ncc(Cl)cc3C(F)(F)F)C2)ccn1 (stereo not shown) [Example 29, formate] , state whether its pIC50 is greater than or equal to 6.
Yes

Determine whether measured pIC50 meets or exceeds 6 for CCn1c(C2CCCN(C(=O)c3cnnc(NC)c3)C2)cc2ccccc21 (stereo not shown)
Yes

Decide: is the reported value of pIC50 for Cc1cc(Cl)cnc1C1(F)CCCN(C(=O)c2cnnc(N(C)C)c2)C1 (stereo not shown) equal to or greater than 6?
Yes

====

target: human PKR1 receptors (Homo sapiens (Human)); test: PKR1 antagonist intracellular calcium (FLIPR) assay, block of PK1-mediated calcium release; details: RBL2H3 cells expressing human PKR1; PK1 at EC80; minimum of two independent assays
Give measured IC50 for each item. Keep answers brief.
Respond with the bare value in nM.

Please tell me: IC50 of CNc1cc(C(=O)N2CCCC(c3cc4ccccc4n3C)C2)cnn1 (centres unmarked) [Example 9] , system human PKR1 receptors (Homo sapiens (Human))?
1080

Give recorded IC50 with human PKR1 receptors (Homo sapiens (Human)) for the following molecule: COC1(c2ncc(Cl)cc2C)CCCN(C(=O)c2cnnc(N(C)C)c2)C1 (centres unmarked) [Example 37]
920

Field: IC50 (human PKR1 receptors (Homo sapiens (Human))). Entry: CNc1cc(C(=O)N2CCCC(F)(c3ncc(Cl)cc3C)C2)cnn1 (centres unmarked) [Example 38]
1250

For the record CNc1cc(C(=O)N2CCCC(OC)(c3ncc(Cl)cc3C)C2)cnn1 (centres unmarked) [Example 36] , what value of IC50 is listed for human PKR1 receptors (Homo sapiens (Human))?
1490

Please state recorded IC50 (tested on human PKR1 receptors (Homo sapiens (Human))) of CCn1c(C2CCCN(C(=O)c3cn(C)nc3N)C2)cc2cc(Cl)ccc21 (centres unmarked) [Example 27]
910
